Biological target: Ad26 viral particles
Test: SPR; post-Ad26 vaccination human serum (1:5) flowed over Ad26 first
propertyLabel: pKd
Just the number, please; pKd means minus log10 of the concentration in mol/L.

Challenge: # get_value(readout='pKd', item= recombinant human platelet factor 4 (PF4) (natural protein) EAEEDGDLQCLCVKTTSQVRPRHITSLEVIKAGPHCPTAQLIATLKNGRKICLDLQAPLYKKIIKKLLES )
Response given: 6.21
